Quick record of log10 MIC values for K. pneumoniae A-15130.
Quantity measured: log10 MIC (log10 of the value in µg/mL)

CCOP(=O)(CCC1=C(C(=O)O)N2C(=O)CC2S1)OCC (centres unmarked) [Preparation 25]: 2.10
NCCCCC1=C(C(=O)O)N2C(=O)CC2S1 (centres unmarked) [Example 73]: 1.51
CC1=C(C(=O)O)N2C(=O)[C@@H]([C@@H](C)O)[C@H]2S1 (relative stereo) [Example 34]: 1.51
O=C(O)C1=C(c2cscn2)SC2CC(=O)N12 (centres unmarked) [Preparation 27, 2-(4'-Thiazolyl)penem-3-carboxylic Acid]: 2.10
NCCSCC1=C(C(=O)O)N2C(=O)CC2S1 (centres unmarked) [Example 88]: 0.90
O=C(O)C1=C(CCC[N+](=O)[O-])SC2CC(=O)N12 (centres unmarked) [Example 91]: 1.20
CCC1=C(C(=O)O)N2C(=O)C[C@H]2S1 [Preparation 10, 2-Ethylpenem-3-carboxylic Acid]: 0.90
O=C([O-])C1=C(c2cccnc2)S[C@@H]2CC(=O)N12.[Na+] [Example 53, Sodium 2-(3-Pyridyl)penem-3-carboxylate]: 1.20
C[C@@H](O)[C@H]1C(=O)N2C(C(=O)O)=C(CN)S[C@H]12 (relative stereo) [Example 62]: 1.20
Cn1cc(C2=C(C(=O)O)N3C(=O)CC3S2)cn1 (centres unmarked) [Example 15]: 2.10
O=C(O)C1=C(C2CC2)SC2CC(=O)N12 (centres unmarked) [Example 14, 2-Cyclopropylpenem-3-carboxylic Acid]: 1.20
NC1CC1C1=C(C(=O)O)N2C(=O)CC2S1 (centres unmarked) [Example 99]: 1.51
CC1=C(C(=O)O)N2C(=O)[C@H](CNC=O)[C@H]2S1 (relative stereo) [Example 92]: 1.80

----------
Items are presented alongside their recorded MIC.
system: Staph. aureus A-9537 and 50% serum; test: MIC, tube dilution, Staph. aureus A9537 + 50% serum; format: cell-based, Staphylococcus aureus; conditions: Staphylococcus aureus, overnight 37° C., read-out: Minimum Inhibitory Concentration (M.I.C.)
Quantity measured: MIC (mg/L)

N=C(NCC1=C(C(=O)O)N2C(=O)CC2S1)c1ccccc1 (stereo not drawn) [Example 108]: 16
CC(C)OP(=O)(CCC1=C(C(=O)O)N2C(=O)CC2S1)OC(C)C (stereo not drawn) [Preparation 54]: 32
NCCSCC1=C(C(=O)O)N2C(=O)CC2S1 (stereo not drawn) [Example 88]: 0.5
NCCCCC1=C(C(=O)O)N2C(=O)CC2S1 (stereo not drawn) [Example 73]: 1
O=C(O)C1=C(CCCNO)SC2CC(=O)N12 (stereo not drawn) [Example 26]: 4
CSCC1=C(C(=O)O)N2C(=O)C[C@H]2S1 [Preparation 9]: 63

----------
Items are presented alongside their recorded Minimum Inhibitory Concentration (M.I.C.).
Tested on: Proteus rettgeri A21203
Test: MIC, tube dilution, Proteus rettgeri A21203
Type: cell-based
Conditions: Proteus rettgeri A21203; overnight 37° C.
From the text: Representative compounds of the present invention were subjected to in vitro antibiotic screening against a variety of microorganisms.
Quantity measured: Minimum Inhibitory Concentration (M.I.C.) (µg/mL)

COP(=O)(CCC1=C(C(=O)O)N2C(=O)CC2S1)OC (centres unmarked) [Example 57]: 16
NC1CCC(C2=C(C(=O)O)N3C(=O)C[C@H]3S2)C1 (single isomer, unassigned) [98 isomer A]: 1
NCCCCCC1=C(C(=O)O)N2C(=O)C[C@H]2S1 [Example 102]: 2
NC1CCC(C2=C(C(=O)O)N3C(=O)C[C@H]3S2)C1 (single isomer, unassigned) [98 isomer C]: 4
NC1CCC(C2=C(C(=O)O)N3C(=O)C[C@H]3S2)C1 (single isomer, unassigned) [98 isomer B]: 1

----------
Quick record of MIC values for Ser. marcescens A-20019.
Quantity measured: MIC (µg/mL)

CC(N)=NCC1=C(C(=O)O)N2C(=O)CC2S1 (stereo not drawn): 32
NCc1ccc(CC2=C(C(=O)O)N3C(=O)CC3S2)cc1 (stereo not drawn): 4
CCCCC1=C(C(=O)[O-])N2C(=O)C[C@H]2S1.[Na+] [Preparation 24, Sodium 2-butylpenem-3-carboxylate]: 32
C[C@@H](O)[C@H]1C(=O)N2C(C(=O)O)=C(COCCN)S[C@H]12 (relative stereo): 2
CC1=C(C(=O)O)N2C(=O)C(C(C)(C)O)C2S1 (stereo not drawn): 63
N[C@H]1C[C@@H](C2=C(C(=O)O)N3C(=O)C[C@H]3S2)C1: 4

----------
Items are presented alongside their recorded concentration at 10 min.
assay: Mouse blood levels after intramuscular administration; type: in vivo; conditions: 10 minutes after IM 40 mg/kg, average of 6 mice, read-out: Mouse blood level
Quantity measured: concentration at 10 min

NCCCCC1=C(C(=O)O)N2C(=O)CC2S1 (stereo not shown): 37900 ng/mL
NCCCCCC1=C(C(=O)O)N2C(=O)C[C@H]2S1: 50300 ng/mL
NCCC1=C(C(=O)O)N2C(=O)CC2S1 (stereo not shown): 51400 ng/mL
N[C@H]1C[C@@H](C2=C(C(=O)O)N3C(=O)C[C@H]3S2)C1: 29700 ng/mL
C[C@@H](O)[C@H]1C(=O)N2C(C(=O)O)=C([C@H]3C[C@H](N)C3)S[C@H]12 (relative stereo): 44700 ng/mL
NCCOCC1=C(C(=O)O)N2C(=O)CC2S1 (stereo not shown): 36000 ng/mL
NCCCC1=C(C(=O)O)N2C(=O)CC2S1 (stereo not shown) [Example 22, Sodium 2-Aminopropylpenem-3-carboxylate]: 36500 ng/mL

----------
tested on: Pr. morganii A-15153
Assign labels as follows, please: t for MIC below 20 µg/mL; f for MIC equal to or exceeding 20 µg/mL.

O=C(O)C1=C(Cc2cscn2)SC2CC(=O)N12 (stereo not drawn) [Example 18]: f
O=C(O)C1=C(c2ccco2)SC2CC(=O)N12 (stereo not drawn) [Preparation 13, 2-(2'-Furyl)penem-3-carboxylic Acid]: f
C[C@@H](O)[C@H]1C(=O)N2C(C(=O)O)=C(CCCCN)S[C@H]12 (relative stereo) [Example 64]: t
CC1=C(C(=O)O)N2C(=O)[C@H]([C@H](O)Cc3ccccc3)[C@H]2S1 (relative stereo) [Example 95]: f
O=C(O)C1=C(Cn2cnnn2)SC2CC(=O)N12 (stereo not drawn) [Example 76]: t
O=C(O)C1=C(c2cscn2)SC2CC(=O)N12 (stereo not drawn) [Preparation 27, 2-(4'-Thiazolyl)penem-3-carboxylic Acid]: f
CON=C(C)CC1=C(C(=O)O)N2C(=O)CC2S1 (stereo not drawn) [Example 44]: f
CC1=C(C(=O)O)N2C(=O)[C@H]([C@H]3COC(C)(C)O3)[C@H]2S1 (relative stereo) [Example 104]: f
NCCOCC1=C(C(=O)O)N2C(=O)CC2S1 (stereo not drawn) [Example 86]: t
CC(N)CCC1=C(C(=O)O)N2C(=O)C[C@H]2S1 (stereo partly drawn) [Example 80]: t
CC1=C(C(=O)O)N2C(=O)[C@H](CNC=O)[C@H]2S1 (relative stereo) [Example 92]: f
O=C(O)C1=C(CCCNO)SC2CC(=O)N12 (stereo not drawn) [Example 26]: t
NCc1ccc(C2=C(C(=O)O)N3C(=O)CC3S2)cc1 (stereo not drawn) [Example 74]: t
CCC(N)CC1=C(C(=O)O)N2C(=O)CC2S1 (stereo not drawn) [Example 100]: t
O=C([O-])C1=C(Cc2ccco2)S[C@@H]2CC(=O)N12.[Na+] [Preparation 18]: t
CC[C@H](O)[C@H]1C(=O)N2C(C(=O)O)=C(C)S[C@H]12 (relative stereo) [Example 93]: f
NCCCCC1=C(C(=O)O)N2C(=O)CC2S1 (stereo not drawn) [Example 73]: f
O=C([O-])C1=C(c2ccccc2)S[C@@H]2CC(=O)N12.[Na+] [Preparation 7, Sodium 2-Phenylpenem-3-carboxylate]: f

----------
test system: K. pneumoniae A-15130; assay: MIC, tube dilution, Klebsiella pneumoniae A15130; type: cell-based; settings: Klebsiella pneumoniae, A15130, K. pneumoniae A15130; overnight 37° C.; read-out: Minimum Inhibitory Concentration (M.I.C.)
Quantity measured: MIC (µg/mL)

CC1(C)OCC(C(N)C2=C(C(=O)O)N3C(=O)CC3S2)O1 (stereo not drawn) [Example 84]: 125
NC=NCC1=C(C(=O)O)N2C(=O)CC2S1 (stereo not drawn) [16 (6)]: 125
O=C(O)C1=C(c2ccco2)SC2CC(=O)N12 (stereo not drawn) [Preparation 13, 2-(2'-Furyl)penem-3-carboxylic Acid]: 32
N[C@H]1C[C@H](C2=C(C(=O)O)N3C(=O)C[C@H]3S2)C1 [Example 75]: 4
NCCOCC1=C(C(=O)O)N2C(=O)CC2S1 (stereo not drawn) [Example 86]: 4
NCC(=O)OCC1=C(C(=O)O)N2C(=O)CC2S1 (stereo not drawn) [Example 81]: 8
